Tested on: UACC-257
Assay: NCI tumour cell line growth inhibition, 48 h
Activity calls are given as the source filed them. Cut-off read from the data, not from the text of the source: active = GI50 up to about 1.1 µM and inactive = higher.
// one of true for active, false for inactive, no free text

For orientation, consider the following solved cases.
CC(=N/NC(=S)N1CCCCC1)/C(C)=N\NC(=S)N1CCCCC1 = false
COC(=O)c1cc2c(n1S(=O)(=O)c1ccc(C)cc1)C(=O)C(=O)c1[nH]cc(C(=O)OCc3ccccc3)c1-2 = true
CC(C)(C)C1CCC2c3c([nH]c4ccccc34)C3C(=O)N(c4cccc(Cl)c4)C(=O)C3C2C1 (centres undefined) = false
CC(C)CCNC(=O)c1ccc(CNC(=O)/C=C/c2ccc(-c3ccccc3[N+](=O)[O-])o2)cc1 = false
C[C@H]1[C@H](C)N(Cc2ccccc2)P(=O)(C(O)/C=C/c2ccccc2)N1Cc1ccccc1 (some centres undefined) = false

## Input Check the results log: what was the call for Cc1cc(NS(=O)(=O)c2ccc(Nc3c4ccccc4nc4c(C(=O)Nc5ccc(S(=O)(=O)N=C(N)N)cc5)cccc34)cc2)no1 ?
## Output false

## Input Check the results log: what was the call for Clc1ccc(-c2noc(CN3CCCCC3)n2)cc1 ?
## Output false

## Input Check the results log: what was the call for NC(=O)NC(=O)Nc1ccc(Br)cc1 ?
## Output false

## Input Check the results log: what was the call for COc1ccc(CCCCNCc2cccc(CNCCCCc3ccc(OC)cc3)c2)cc1 ?
## Output false

From: ChEMBL document CHEMBL1201862
